Provide the reported pIC50 of each item.
System: Axl (Homo sapiens, UniProt P30530)
Sequence (P30530 26-894): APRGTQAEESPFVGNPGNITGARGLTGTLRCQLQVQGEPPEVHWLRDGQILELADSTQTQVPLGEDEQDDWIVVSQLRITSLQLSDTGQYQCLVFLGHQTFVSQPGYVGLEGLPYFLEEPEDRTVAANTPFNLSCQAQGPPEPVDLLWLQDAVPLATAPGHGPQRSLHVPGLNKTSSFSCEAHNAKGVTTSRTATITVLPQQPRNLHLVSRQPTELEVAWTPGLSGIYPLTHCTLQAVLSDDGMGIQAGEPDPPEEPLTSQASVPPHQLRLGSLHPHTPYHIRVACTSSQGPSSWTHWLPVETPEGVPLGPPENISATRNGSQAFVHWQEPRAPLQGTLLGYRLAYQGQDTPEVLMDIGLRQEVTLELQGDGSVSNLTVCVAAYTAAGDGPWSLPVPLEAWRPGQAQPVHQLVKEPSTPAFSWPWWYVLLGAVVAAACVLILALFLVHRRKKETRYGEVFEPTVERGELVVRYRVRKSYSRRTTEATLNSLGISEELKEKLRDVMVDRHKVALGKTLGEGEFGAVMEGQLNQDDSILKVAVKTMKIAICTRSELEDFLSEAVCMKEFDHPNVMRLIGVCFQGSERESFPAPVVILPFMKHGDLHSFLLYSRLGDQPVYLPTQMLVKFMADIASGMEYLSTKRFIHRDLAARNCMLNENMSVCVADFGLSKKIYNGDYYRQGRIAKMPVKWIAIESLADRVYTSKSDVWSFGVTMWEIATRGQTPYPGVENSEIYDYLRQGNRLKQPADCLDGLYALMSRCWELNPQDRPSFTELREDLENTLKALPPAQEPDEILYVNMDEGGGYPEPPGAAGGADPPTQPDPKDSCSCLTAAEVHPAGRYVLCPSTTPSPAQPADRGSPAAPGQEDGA
Assay info: HTRF KinEASE-TK biochemical potency assay, AXL
Parameters: purchased Invitrogen
Settings: 5 nM AXL, 700 μM ATP, 800 nM TK Substrate-biotin
pIC50: −log10 of the molar value.

Item: CC(C)(O)c1ccc(-c2n[nH]c3ncc(-c4ccc5c(c4)CCC(N4CCC[C@@H]4CO)CC5)cc23)cc1Cl (some centres unmarked) [Example 21] Test system: Axl (Homo sapiens, UniProt P30530) Read-out: pIC50 Value: ?
> 7.00

Now the molecule CCC1(N2CCC[C@@H]2CO)CCc2ccc(-c3cnc4[nH]nc(-c5ccc(C(N)=O)c(Cl)c5)c4c3)cc2CC1 (some centres unmarked) [Example 74]
> 7.00

Now the molecule CC(C)(O)c1ccc(-c2n[nH]c3ncc(-c4ccc5c(c4)CC[C@@H](N4CCCC4)CC5)cc23)c(Cl)c1 [Example 51]
6.00 to 7.00

Now the molecule O=S(=O)(c1ccc(-c2n[nH]c3ncc(-c4ccc5c(c4)CCN(CC4CCOC4)CC5)cc23)cc1)C1CC1 (centres unmarked) [Example 27]
> 7.00

Now the molecule C[C@@H]1CCCN1C1(C)CCc2ccc(-c3cnc4[nH]nc(-c5ccc(N6CCOCC6)cc5)c4c3)cc2CC1 (some centres unmarked) [Example 107]
> 7.00

Now the molecule Cc1cc2c(cc1-c1cnc3[nH]nc(-c4ccc(C(C)(C)O)c(Cl)c4)c3c1)CCC(N1CCC[C@H]1C)CC2 (some centres unmarked) [Example 90]
> 7.00

Now the molecule CC(C)(C)S(=O)(=O)c1ccc(-c2n[nH]c3ncc(-c4ccc5c(c4)CC[C@@H](N4C6COCC4C6)CC5)cc23)cc1 [Example 124]
> 7.00

Now the molecule C[C@@H]1CCCN1C1(C)CCc2ccc(-c3cnc4[nH]nc(-c5ccc(S(N)(=O)=O)c(Cl)c5)c4c3)cc2CC1 (some centres unmarked) [Example 93]
> 7.00

Now the molecule C[C@@H]1CCCN1C1(C)CCc2ccc(-c3cnc4[nH]nc(-c5ccc(S(N)(=O)=O)cc5)c4c3)cc2CC1 (some centres unmarked) [Example 95]
> 7.00

Now the molecule CC(C)(O)c1ccc(-c2n[nH]c3ncc(-c4ccc5c(c4)CCN(C4CCCC4)CC5)cc23)cc1Cl [Example 12]
> 7.00

Now the molecule CS(=O)(=O)c1ccc(-c2n[nH]c3ncc(-c4ccc5c(c4)CCN(C4CCCC4)CC5)cc23)cc1Cl [Example 31]
> 7.00

Now the molecule CCS(=N)(=O)c1ccc(-c2n[nH]c3ncc(-c4ccc5c(c4)CCC(C)(N4CCC[C@H]4C)CC5)cc23)cc1 (some centres unmarked) [Example 100]
> 7.00

Now the molecule CC1(N2CCOCC2)CCc2ccc(-c3cnc4[nH]nc(-c5ccc(S(=O)(=O)C6CC6)cc5)c4c3)cc2CC1 (centres unmarked) [Example 2]
< 6.00

Now the molecule CC(C)(O)c1ccc(-c2n[nH]c3ncc(-c4ccc5c(c4)CC4CCC(C5)C4N4CCCC4)cc23)cc1Cl (centres unmarked) [Example 61]
< 6.00

Now the molecule C[C@@H]1CCCN1C1CCc2ccc(-c3cnc4[nH]nc(-c5ccc(C(C)(C)O)cn5)c4c3)cc2CC1 (some centres unmarked) [Example 97]
> 7.00

Now the molecule C[C@@H]1CCCN1C1(C)CCc2ccc(-c3cnc4[nH]nc(-c5ccc(C(=O)NC6CCOCC6)cc5)c4c3)cc2CC1 (some centres unmarked) [Example 88]
> 7.00

Now the molecule C[C@@H]1CCCN1C1CCc2ccc(-c3cnc4[nH]nc(-c5ccc(C6(O)COC6)c(Cl)c5)c4c3)cc2CC1 (some centres unmarked) [Example 64]
> 7.00

Now the molecule C[C@@H]1CCCN1C1CCc2ccc(-c3cnc4[nH]nc(-c5ccc(C(C)(C)O)c(Cl)c5)c4c3)cc2CC1 (some centres unmarked) [Example 35]
> 7.00

Now the molecule CC(C)NC(=O)c1ccc(-c2n[nH]c3ncc(-c4ccc5c(c4)CCC(C)(N4CCC[C@H]4C)CC5)cc23)cc1 (some centres unmarked) [Example 70]
> 7.00

Now the molecule COC1CCN(C(=O)c2ccc(-c3n[nH]c4ncc(-c5ccc6c(c5)CCC(C)(N5CCC[C@H]5C)CC6)cc34)cc2)CC1 (some centres unmarked) [Example 89]
> 7.00
